Values compiled from ChEMBL document CHEMBL1155460.

Biological target: Acetylcholinesterase (Homo sapiens)
pIC50: −log10 of the molar value.
# label = t if pIC50 >= 7 else f

> print(dat)
                                input.smiles  cat
 1  CNC(=O)Oc1cccc(CN(C)CCCCCCCOc2ccc3c(c2)CC/C(=C/c2cc(O)c(O)c(O)c2)C3=O)c1    t
 2       CCN(CCOCCNC(=O)NCc1ccccc1)CC1CCCCC1    f
 3  c1cnc2nc3c(c(NCCCCCCCNc4c5c(nc6ncccc46)CCCC5)c2c1)CCCC3    t
 4  O=C(CCC1CCN(Cc2ccccc2F)CC1)c1ccc2c(c1)CCN2    t
 5     CN(CCCCNc1ccc(-c2ccccc2)nn1)Cc1ccccc1    f
 6  Cn1cc(C(=O)NCCCCCCCNc2c3c(nc4cc(Cl)ccc24)CCCC3)c2ccccc21    t
 7       CN(C)CCCCCCCNc1c2c(nc3ccccc13)CCCC2    t
 8  O=[N+]([O-])c1ccc2nc3c(c(Nc4ccccc4)c2c1)CCCC3    f
 9           Nc1c2c(nc3ccccc13)-c1ccccc1CCC2    f
10  COc1ccccc1CN1CCC(CCC(=O)c2ccc3c(c2)CCN3)CC1    f
11    COC(=O)Nc1ccc2n(c1)cc(-c1ccccc1)[n+]2C    f
12  Cc1cccc(CN2CCC(CCC(=O)c3ccc4c(c3)NCCCC4)CC2)c1    f
13  CNC(=O)Oc1ccc(-c2cn3c(NC(C)=O)cccc3[n+]2C)cc1    f
14  O=C(Cc1c[nH]c2ccccc12)NCCCCCCCNc1c2c(nc3cc(Cl)ccc13)CCCC2    t
15  Nc1ccc2c(c1)c(-c1ccccc1)[n+](CCCNCCCNCCCNc1c3c(nc4ccccc14)CCCC3)c1cc(N)ccc21    t
16  COc1ccc(/N=C/c2cn(-c3ccc(OC)cc3)cc2/C=N/c2ccc(OC)cc2)cc1    f
17  O=C(CCC1CCN(Cc2ccccc2)CC1)c1ccc2c(c1)CCCN2    t
18  CCCCCCCNC(=O)Oc1ccc2c(c1)[C@@H]1CCN(CC)[C@@H]1C2    f
19           Nc1cc(-c2ccccc2)nnc1NCCN1CCOCC1    f

====

Quick record of pIC50 values for Acetylcholinesterase (Homo sapiens).
pIC50: −log10 of the molar value.
assay_readout: pIC50

> print(dat)
                                   compound                    system.under.test  assay.readout  experimental.value
1   CCC(=O)N(CCC1CCN(Cc2ccccc2)CC1)c1ccccc1  Acetylcholinesterase (Homo sapiens)          pIC50                6.08
2  O=C(CC1S/C(=N/c2ccc(C3CCCCC3)cc2)NC1=O)Nc1ccc(OC(F)(F)F)cc1 (stereo unspecified)  Acetylcholinesterase (Homo sapiens)          pIC50                5.54
3  CN(C)CCCCCCCCCCCCNc1c2c(nc3ccccc13)CCCC2  Acetylcholinesterase (Homo sapiens)          pIC50                6.58
4  O=C(CCC1CCN(Cc2ccccc2)CC1)c1ccc2c(c1)NCCC2  Acetylcholinesterase (Homo sapiens)          pIC50                6.79
5  O=C1c2ccccc2CCC1CC1CCN(c2ccccc2)CC1 (stereo unspecified)  Acetylcholinesterase (Homo sapiens)          pIC50                5.68
6  c1ccc2c(NCCCCCCCNc3c4c(nc5ccccc35)CCC4)c3c(nc2c1)CCC3  Acetylcholinesterase (Homo sapiens)          pIC50                7.12

====

Target: Acetylcholinesterase (Homo sapiens, UniProt P22303)
Sequence (P22303 whole entry): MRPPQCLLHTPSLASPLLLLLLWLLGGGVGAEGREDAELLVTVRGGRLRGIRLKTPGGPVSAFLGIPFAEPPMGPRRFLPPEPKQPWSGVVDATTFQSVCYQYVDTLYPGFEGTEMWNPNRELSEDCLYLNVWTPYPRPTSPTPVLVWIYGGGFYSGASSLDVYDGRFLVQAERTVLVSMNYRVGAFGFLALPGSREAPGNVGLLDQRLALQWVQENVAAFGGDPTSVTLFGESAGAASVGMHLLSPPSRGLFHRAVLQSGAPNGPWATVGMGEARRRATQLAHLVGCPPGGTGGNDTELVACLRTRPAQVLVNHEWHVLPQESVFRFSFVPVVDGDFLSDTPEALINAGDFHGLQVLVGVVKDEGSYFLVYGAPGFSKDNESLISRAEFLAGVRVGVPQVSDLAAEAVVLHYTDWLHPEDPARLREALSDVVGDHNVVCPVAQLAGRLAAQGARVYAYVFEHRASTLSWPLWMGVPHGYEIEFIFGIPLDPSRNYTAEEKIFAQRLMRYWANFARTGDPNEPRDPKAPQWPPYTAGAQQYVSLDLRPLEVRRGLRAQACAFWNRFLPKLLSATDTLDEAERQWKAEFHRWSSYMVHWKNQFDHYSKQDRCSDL
// values below are reported IC50
assay_readout: IC50

> print(dat)
                                input.smiles                         system.under.test  experimental.value
 1  c1ccc(CN2CCC(Nc3ccc(-c4ccccc4)nn3)CC2)cc1  Acetylcholinesterase (Homo sapiens, UniProt P22303)               65 µM
 2  CCCCCCCNC(=O)Oc1ccc2c(c1)[C@]1(C)CCN(CCC)[C@@H]1C2  Acetylcholinesterase (Homo sapiens, UniProt P22303)            0.093 µM
 3  CC(=O)N(CCC1CCN(Cc2ccccc2)CC1)c1cccc(F)c1  Acetylcholinesterase (Homo sapiens, UniProt P22303)            0.065 µM
 4  O=C(CCC1CCN(Cc2ccccc2)CC1)c1ccc2c(c1)N(Cc1ccccc1)CCCC2  Acetylcholinesterase (Homo sapiens, UniProt P22303)             3.14 µM
 5  Fc1ccc(N(Cc2ccc3c(c2)OCO3)C(=S)Nc2cccc(C(F)(F)F)c2)cc1  Acetylcholinesterase (Homo sapiens, UniProt P22303)                8 µM
 6  CCCCCCNC(=O)Oc1cccc(CN(C)CCCOc2ccc3ccc(=O)oc3c2)c1  Acetylcholinesterase (Homo sapiens, UniProt P22303)            0.013 µM
 7  COc1cccc2n1cc(-c1cccc(OC(=O)N(C)C)c1)[n+]2C  Acetylcholinesterase (Homo sapiens, UniProt P22303)             20.5 µM
 8  CCCCCCNC(=O)Oc1cccc(CN(C)CCCCCOc2ccc3c(=O)c4ccccc4oc3c2)c1  Acetylcholinesterase (Homo sapiens, UniProt P22303)              0.1 µM
 9  CNC(=O)Oc1cccc(CN(C)CCCCCCCOc2ccc3c(c2)O/C(=C\c2cc(O)c(O)c(O)c2)C3=O)c1  Acetylcholinesterase (Homo sapiens, UniProt P22303)          0.00052 µM
10  CCCCCCNC(=O)Oc1ccc2c(c1)[C@]1(C)CCN(CCC)[C@@H]1C2  Acetylcholinesterase (Homo sapiens, UniProt P22303)            0.062 µM

====

Measured IC50, listed per entry.
Target: Acetylcholinesterase (Homo sapiens)
assay_readout: IC50

> print(dat)
                                    molecule  experimental.value
 1  O=C(CCc1c[nH]c2ccccc12)NCCCCCCCCNc1c2c(nc3cc(Cl)ccc13)CCCC2              0.5 nM
 2    Cc1cc(-c2ccc3c(c2)OCO3)nnc1NCCN1CCCCC1             1000 nM
 3  O=C(CCOCCc1c[nH]c2ccccc12)NCCCCCCNc1c2c(nc3cc(Cl)ccc13)CCCC2              0.7 nM
 4  O=C(CCC1CCN(Cc2ccccc2)CC1)c1ccc2c(c1)CCN2               20 nM
 5        Cc1ccc2nc3c(c(Nc4ccccc4)c2c1)CCCC3             3700 nM
 6  O=C(c1ccc(F)cc1)N(CCC1CCN(Cc2ccccc2)CC1)c1ccccc1               18 nM
 7  O=C(CCC1CCN(Cc2cccc(Cl)c2)CC1)c1ccc2c(c1)CCN2               59 nM
 8  COC(=O)Nc1cccc2n1cc(-c1ccc(OC(=O)N(C)C)cc1)[n+]2C             1100 nM
 9  CCCCCCNC(=O)Oc1ccc2c(c1)[C@@H]1CCN(CC)[C@@H]1C2              208 nM
10  COc1ccc(N(CCC2CCN(Cc3ccccc3)CC2)C(C)=O)cc1              700 nM
11                    Nc1c2c(nc3ccccc13)CCC2               56 nM
12  COc1cccc2n1cc(-c1ccc(OC(=O)N(C)C)cc1)[n+]2C             8100 nM
13  O=C(Nc1ccc2c(c1)C(=O)N(CCC1CCN(Cc3ccccc3)CC1)C2=O)c1ccccc1              1.2 nM
14  c1ccc(CN2CCC(CCN=c3[nH]nc(-c4ccccc4)c4ccccc34)CC2)cc1              440 nM
15      CNC(=O)Oc1cccc(-c2cn3ccccc3[n+]2C)c1              350 nM
16  COc1ccccc1CN1CCC(CCC(=O)c2ccc3c(c2)NCCCC3)CC1             2650 nM
17  CCCCCCNC(=O)Oc1ccc2c(c1)C1CCN(CCC)C1C2 (stereo not drawn)              546 nM
18     O=c1c2ccccc2ncn1CCC1CCN(Cc2ccccc2)CC1             1200 nM
19      CNC(=O)Oc1ccc(-c2cn3ccccc3[n+]2C)cc1            19500 nM
20  O=C(CCc1c[nH]c2ccccc12)NCCCCCNc1c2c(nc3ccccc13)CCCC2               70 nM
21  COc1cc(N)c(Cl)cc1C(=O)NC1CCN(Cc2ccccc2)CC1 [CLEBOPRIDE]              890 nM
22  COc1cccc(CN2CCC(CCC(=O)c3ccc4c(c3)CCN4)CC2)c1             2680 nM
23  CNC(=O)Oc1cccc(-c2cn3c(NC(C)=O)cccc3[n+]2C)c1             4500 nM
24   CN(C)C(=O)Oc1cccc(-c2cn3ccccc3[n+]2C)c1             7100 nM
25  CN(C)c1ccc(-c2c3cc(O)c(=O)cc-3oc3cc(O)c(O)cc23)cc1            22000 nM
26     CN(C)CCCCCCCCCNc1c2c(nc3ccccc13)CCCC2               71 nM
27    CN(CCCCCNc1ccc(-c2ccccc2)nn1)Cc1ccccc1              740 nM
28       Cc1cc(-c2ccc(Cl)cc2)nnc1NCCN1CCOCC1            34000 nM
29  O=C(CCC1CCN(Cc2ccccc2)CC1)c1ccc2c(c1)NCCCCC2              127 nM
30  CCN1CC[C@@]2(C)c3cc(OC(=O)NC)ccc3C[C@@H]12               38 nM
31  O=C(NCCCCCCNc1c2c(nc3cc(Cl)ccc13)CCCC2)c1c[nH]c2ccccc12               33 nM
32  CCCCNC(=O)Oc1ccc2c(c1)[C@]1(C)CCN(CC)[C@@H]1C2               90 nM
33  CC(=O)Nc1cccc2n1cc(-c1cccc(OC(=O)N(C)C)c1)[n+]2C             2500 nM
34   CNC(=O)Oc1ccc(-c2cn3c(C)cccc3[n+]2C)cc1             4000 nM
35  COc1cc2c(cc1OC)C(O)C(CC1CCN(c3ccccc3)CC1)C2 (stereo not drawn)              300 nM
36     O=C1Nc2ccccc2CN1CCC1CCN(Cc2ccccc2)CC1               13 nM
37  CCCCCCNC(=O)Oc1cccc(CN(CCC)CCCOc2ccc3c(=O)c4ccccc4oc3c2)c1              400 nM
38  O=C(CCC1CCN(Cc2ccc(F)cc2)CC1)c1ccc2c(c1)NCCCC2              393 nM
39  O=C(Nc1cccc(C2=NCCN2)c1)Nc1cccc(C2=NCCN2)c1 [IMIDOCARB]              590 nM
40  CCCCCCNC(=O)Oc1cccc(CN(CCCOc2ccc3c(=O)c4ccccc4oc3c2)C(C)C)c1              170 nM
41  O=C(CCOCCc1c[nH]c2ccccc12)NCCCCCNc1c2c(nc3cc(Cl)ccc13)CCCC2              1.5 nM
42  CCCCNC(=O)Oc1ccc2c(c1)C1CCN(CC)C1C2 (stereo not drawn)             1080 nM
43       CN(CCNc1ccc(-c2ccccc2)nn1)Cc1ccccc1           170000 nM
